Where do these numbers come from? They come from patent US7642244B2.

Biological target: Y1R (Homo sapiens, UniProt P25929)
Sequence (P25929 1-384): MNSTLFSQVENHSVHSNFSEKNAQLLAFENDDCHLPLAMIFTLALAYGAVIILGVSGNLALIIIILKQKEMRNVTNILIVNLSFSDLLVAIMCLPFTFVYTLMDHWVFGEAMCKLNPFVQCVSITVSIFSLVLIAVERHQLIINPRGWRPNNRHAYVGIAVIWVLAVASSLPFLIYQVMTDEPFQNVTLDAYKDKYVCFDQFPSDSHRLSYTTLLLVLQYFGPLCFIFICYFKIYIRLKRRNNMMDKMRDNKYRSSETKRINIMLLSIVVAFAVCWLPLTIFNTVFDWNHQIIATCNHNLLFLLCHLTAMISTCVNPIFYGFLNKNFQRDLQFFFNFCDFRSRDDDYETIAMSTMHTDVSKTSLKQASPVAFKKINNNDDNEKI
Assay: Calcium flux assay (FLIPR), Y1R
Listed next: entries and their corresponding EC50.

• CCCCC(=O)N[C@H](C(=O)N[C@@H](CCCCN)C(=O)N1CCN(c2ccc3ncn(CC(=O)N[C@@H](CCCNC(=N)N)C(=O)N[C@@H](Cc4c[nH]cn4)C(=O)N[C@@H](Cc4ccc(O)cc4)C(=O)N[C@@H](CC(C)C)C(=O)N[C@@H](CC(N)=O)C(=O)N[C@@H](Cc4c[nH]c5ccccc45)C(=O)N[C@H](C(=O)N[C@H](C(=O)N[C@@H](CCCNC(=N)N)C(=O)N[C@@H](CCC(N)=O)C(=O)N(C)[C@@H](CCCNC(=N)N)C(=O)N[C@@H](Cc4ccc(O)cc4)C(N)=O)[C@@H](C)O)C(C)C)c(=O)c3c2)CC1)[C@@H](C)CC [Example 29] = > 5 µM

Query CCCC[C@H](NC(=O)[C@@H](N)[C@@H](C)CC)C(=O)N1CCN(c2ccc3ncn(CC(=O)N[C@@H](CCCNC(=N)N)C(=O)N[C@@H](Cc4c[nH]cn4)C(=O)N[C@@H](Cc4ccc(O)cc4)C(=O)N[C@@H](CC(C)C)C(=O)N[C@@H](CC(N)=O)C(=O)N[C@@H](Cc4c[nH]c5ccccc45)C(=O)N[C@H](C(=O)N[C@H](C(=O)N[C@@H](CCCNC(=N)N)C(=O)N[C@@H](CCC(N)=O)C(=O)N(C)[C@@H](CCCNC(=N)N)C(=O)N[C@@H](Cc4ccc(O)cc4)C(N)=O)[C@@H](C)O)C(C)C)c(=O)c3c2)CC1 [Example 26] yields EC50 of > 5 µM

The molecule listed as CC[C@H](C)[C@H](NC(=O)c1ccccc1)C(=O)N[C@@H](CCCCN)C(=O)N1CCN(c2ccc3ncn(CC(=O)N[C@@H](CCCNC(=N)N)C(=O)N[C@@H](Cc4c[nH]cn4)C(=O)N[C@@H](Cc4ccc(O)cc4)C(=O)N[C@@H](CC(C)C)C(=O)N[C@@H](CC(N)=O)C(=O)N[C@@H](Cc4c[nH]c5ccccc45)C(=O)N[C@H](C(=O)N[C@H](C(=O)N[C@@H](CCCNC(=N)N)C(=O)N[C@@H](CCC(N)=O)C(=O)N(C)[C@@H](CCCNC(=N)N)C(=O)N[C@@H](Cc4ccc(O)cc4)C(N)=O)[C@@H](C)O)C(C)C)c(=O)c3c2)CC1 [Example 32] has a reported EC50 of > 5 µM

Notebook: CC[C@H](C)[C@H](NC(=O)C(C)(C)C)C(=O)N[C@@H](CCCCN)C(=O)N1CCN(c2ccc3ncn(CC(=O)N[C@@H](CCCNC(=N)N)C(=O)N[C@@H](Cc4c[nH]cn4)C(=O)N[C@@H](Cc4ccc(O)cc4)C(=O)N[C@@H](CC(C)C)C(=O)N[C@@H](CC(N)=O)C(=O)N[C@@H](Cc4c[nH]c5ccccc45)C(=O)N[C@H](C(=O)N[C@H](C(=O)N[C@@H](CCCNC(=N)N)C(=O)N[C@@H](CCC(N)=O)C(=O)N(C)[C@@H](CCCNC(=N)N)C(=O)N[C@@H](Cc4ccc(O)cc4)C(N)=O)[C@@H](C)O)C(C)C)c(=O)c3c2)CC1 [Example 30] , EC50 read as > 5 µM

Briefly, EC50 measured for CC[C@H](C)[C@H](N)C(=O)N[C@@H](CCCCN)C(=O)N1CCN(c2ccc3ncn(CC(=O)N[C@@H](CCCNC(=N)N)C(=O)N[C@@H](Cc4c[nH]cn4)C(=O)N[C@@H](Cc4ccc(O)cc4)C(=O)N[C@@H](CC(C)C)C(=O)N[C@@H](CC(N)=O)C(=O)N[C@@H](Cc4c[nH]c5ccccc45)C(=O)N[C@H](C(=O)N[C@H](C(=O)N[C@@H](CCCNC(=N)N)C(=O)N[C@@H](CCC(N)=O)C(=O)N(C)[C@@H](CCCNC(=N)N)C(=O)N[C@@H](Cc4ccc(O)cc4)C(N)=O)[C@@H](C)O)C(C)C)c(=O)c3c2)CC1 [Example 25] : 0.298 µM
